// reported Population Mitotic Cells (%) per item
system: Fibroblast; experiment: Multiplex assay against human fibroblast; assay type: toxicity, cell-based; conditions: 24 h, 10 µM, compound concentration 10 uM, replicate 1
Give just the numeric value; % need not be written.

Some compounds with recorded Population Mitotic Cells (%):
In [3]: df
Out[3]:
                                   compound                      property  recorded_result
0  COc1ccccc1N1CCN(C[C@@H](C(=O)NC(C)(C)C)c2ccccc2)CC1.Cl.Cl  Population Mitotic Cells (%)               16
1  Cl.NCCc1ccc(O)c(O)c1 [DOPAMINE HYDROCHLORIDE]  Population Mitotic Cells (%)               44
2  N#Cc1c(Oc2cccc(OS(=O)(=O)CCCC(F)(F)F)c2)cccc1C(F)(F)F  Population Mitotic Cells (%)               55
3  O=C(NCCN1CCC(n2c(=O)[nH]c3cc(Cl)ccc32)CC1)c1ccc(F)cc1 [HALOPEMIDE]  Population Mitotic Cells (%)               32
4  CC(C)COc1ccc(CNC(=O)N(Cc2ccc(F)cc2)C2CCN(C)CC2)cc1  Population Mitotic Cells (%)               16

Asked: Please give the measured Population Mitotic Cells (%) for this compound: "CCCOc1ccc2[nH]cc(C3=CCNCC3)c2n1.Cl"
Given back: 38

Asked: Which Population Mitotic Cells (%) is listed for "COc1cccc2c1c(NS(=O)(=O)c1ccc(Cl)s1)nn2Cc1cccc(CNC(=O)C(C)(C)O)c1" ?
Given back: 52

Asked: Which Population Mitotic Cells (%) is listed for "Cc1cnc(-c2cc(N3CCN(C(=O)CCS(C)(=O)=O)CC3)ncc2Cl)c(C)c1" ?
Given back: 53

Asked: What value of Population Mitotic Cells (%) has been reported for the following compound? Br.CS(=O)(=O)Nc1c(O)ccc2c1CCCC2C1=NCCN1 (centres undefined)
Given back: 51

* * *

Population Healthy Nuclei (%) listing for selected molecules.
tested on: U2OS; assay: Multiplex assay against U2OS; format: toxicity, cell-based; details: human, 12 h, 1 µM, compound concentration 1 uM, replicate 1
Use % as the unit, but write only the number.

Past entries and their recorded results:
                                smiles_repr  unit_symbol  recorded_result
0  Cc1c(CC(=O)O)c2cccnc2n1Cc1ccc(S(C)(=O)=O)cc1C(F)(F)F            %               64
1  CN[C@@H](C)C(=O)N[C@H](C(=O)N1CCC[C@H]1C(=O)Nc1snnc1-c1ccccc1)C1CCCCC1            %               61
2  CC(C)(C)c1cc(NC(=O)Nc2ccc(-c3cn4c(n3)sc3cc(OCCN5CCOCC5)ccc34)cc2)no1            %               61

Please look at the following molecule next.
Asked: Consider the molecule "CC(/C=C1\SC(=S)N(CCCC(=O)Nc2ccc(C(=O)O)c(O)c2)C1=O)=C\c1ccccc1" and give its measured Population Healthy Nuclei (%).
Given back: 64

* * *

Some compounds, each annotated with its measured Population Mitotic Cells (%).
tested on: Fibroblast; assay: Multiplex assay against human fibroblast; format: toxicity, cell-based; conditions: 24 h, 10 µM, compound concentration 10 uM, replicate 2
Numbers only; they are read as %.

In [3]: df
Out[3]:
                                   compound  recorded_result
0  Cc1noc(-c2ccc(-c3ccc(CC(=O)O)cc3)cc2)c1NC(=O)O[C@H](C)c1ccccc1Cl               67
1    N#Cc1cc(F)cc(-c2nc(-c3ccc(F)cn3)no2)c1               65

Asked: Param readout= Population Mitotic Cells (%); system= Fibroblast; entry= "Cc1cnc(-c2cc(N3CCN(C(=O)CCS(C)(=O)=O)CC3)ncc2Cl)c(C)c1" ; returns value.
Given back: 57

Asked: Write down the reported Population Mitotic Cells (%) of "CN(C)C(=O)Cn1cc(-c2ccc(-c3cncc4ccccc34)cc2)cn1" , test system: Fibroblast.
Given back: 58

Asked: Recorded Population Mitotic Cells (%) for "Cc1c(CC(=O)O)c2cccnc2n1Cc1ccc(S(C)(=O)=O)cc1C(F)(F)F" with Fibroblast, please?
Given back: 68

Asked: Value wanted: Population Mitotic Cells (%) (Fibroblast) of entry Br.CS(=O)(=O)Nc1c(O)ccc2c1CCCC2C1=NCCN1 (stereo not given)
Given back: 58

Asked: Any idea what Population Mitotic Cells (%) came out for COC[C@@H](c1ccc(C(F)(F)F)cc1)N1CCN(C2(C)CCN(C(=O)c3c(C)ncnc3C)CC2)C[C@@H]1C.O=C(O)/C=C\C(=O)O [VICRIVIROC MALEATE] on Fibroblast?
Given back: 57

Asked: Return Population Mitotic Cells (%) measured with Fibroblast given this compound: "O=C(CCCc1ccccc1)Nc1nc2ccccc2c(=O)s1"
Given back: 46

Asked: I'm curious: which Population Mitotic Cells (%) was measured for "CCCCC1=NC2(CCCC2)C(=O)N1Cc1ccc(-c2ccccc2-c2nnn[nH]2)cc1" tested on Fibroblast?
Given back: 55

Asked: Param readout = Population Mitotic Cells (%); param system = Fibroblast; param query = "Cc1cccc(NC(=O)CN2CCC(c3ccccn3)CC2)c1.Cl.Cl" ; response: value
Given back: 57

* * *

test system: Fibroblast; experiment: Multiplex assay against human fibroblast; assay type: toxicity, cell-based; settings: 48 h, 1 µM, compound concentration 1 uM, replicate 2
Collected Population Fragmented Nuclei (%) values appear next to each entry.
Express the result in % but write the number alone.

                                smiles_repr  recorded_result
0  Cc1cccc(NC(=O)CN2CCC(c3ccccn3)CC2)c1.Cl.Cl               31
1  NCCc1cn(S(=O)(=O)c2c(Cl)nc3sccn23)c2ccccc12.O=C(O)C(=O)O               38

Asked: Using the record for "CN(C)C(=O)Cn1cc(-c2ccc(-c3cncc4ccccc34)cc2)cn1" , report its Population Fragmented Nuclei (%).
Given back: 36

Asked: Fill in the blank: the reported Population Fragmented Nuclei (%) of "CCCCC1=NC2(CCCC2)C(=O)N1Cc1ccc(-c2ccccc2-c2nnn[nH]2)cc1" is ____.
Given back: 31

Asked: Please report the recorded Population Fragmented Nuclei (%) for "N#Cc1c(Oc2cccc(OS(=O)(=O)CCCC(F)(F)F)c2)cccc1C(F)(F)F" .
Given back: 26

* * *

Collected Population Mitotic Cells (%) values appear next to each entry.
tested on: HEK-293T; test: Multiplex assay against HEK293T; assay type: toxicity, cell-based; conditions: human, 12 h, 1 µM, compound concentration 1 uM, replicate 1

These solved cases illustrate the format of a correct answer.
                                   compound  recorded_result
0  Cc1cnc(-c2cc(N3CCN(C(=O)CCS(C)(=O)=O)CC3)ncc2Cl)c(C)c1              70%
1  COc1ccccc1N1CCN(C[C@@H](C(=O)NC(C)(C)C)c2ccccc2)CC1.Cl.Cl              75%
2  CC[C@@H](C)Nc1nc(C)nc2c(-c3ccc(OC)nc3C)c(C)nn12              66%
3  COc1cccc2c1c(NS(=O)(=O)c1ccc(Cl)s1)nn2Cc1cccc(CNC(=O)C(C)(C)O)c1              68%

Field: next compound
Asked: Which Population Mitotic Cells (%) value is on record for Cl.NCCc1ccc(O)c(O)c1 [DOPAMINE HYDROCHLORIDE] ?
Given back: 68%

* * *

// Population Fragmented Nuclei (%) lookup, one value per entry
test system: Fibroblast; assay: Multiplex assay against human fibroblast; assay type: toxicity, cell-based; conditions: 24 h, 1 µM, compound concentration 1 uM, replicate 1
Give just the number in %; leave the unit off.

In [3]: df
Out[3]:
                                   compound  recorded_result
0  Cc1cnc(-c2cc(N3CCN(C(=O)CCS(C)(=O)=O)CC3)ncc2Cl)c(C)c1               10

Asked: Fill in the blank: the reported Population Fragmented Nuclei (%) of "O=C1[C@H](Cc2ccc(O)cc2)N2C(=O)CCN(C(=O)NCc3ccccc3)[C@H]2CN1Cc1cccc2ccccc12" is ____.
Given back: 16

Asked: Dear colleague, I am looking for the recorded Population Fragmented Nuclei (%) of the following compound: "CC(=O)Nc1cccc2c1c(Sc1ccc(Cl)cc1)c(C)n2CC(=O)O"
Given back: 19

Asked: # lookup: Population Fragmented Nuclei (%) of COC[C@@H](c1ccc(C(F)(F)F)cc1)N1CCN(C2(C)CCN(C(=O)c3c(C)ncnc3C)CC2)C[C@@H]1C.O=C(O)/C=C\C(=O)O [VICRIVIROC MALEATE]
Given back: 21

Asked: Recorded Population Fragmented Nuclei (%) for "COc1ccccc1N1CCN(C[C@@H](C(=O)NC(C)(C)C)c2ccccc2)CC1.Cl.Cl" , please?
Given back: 12
